Reported EC50 by item:
# Tested on: murine SCLC cell line 319N1
# test description: Cytotoxicity assay
# Format: cell-based, mouse
# stated conditions: Mus musculus, 319N1
Numeric answer only, unit nM assumed.

Cc1ccc(Cl)cc1N1CCN(C(=O)c2ccc(OC(F)(F)F)c([N+](=O)[O-])c2)CC1	20
Cc1ccc(Cl)cc1N1CCN(C(=O)c2ccc(I)c([N+](=O)[O-])c2)CC1	51
Cc1ccc(Cl)cc1N1CCN(C(=O)c2ccc(F)c([N+](=O)[O-])c2)CC1	818
Cc1ccc(Cl)cc1N1CCN(C(=O)c2ccc(Cl)c([N+](=O)[O-])c2)CC1	182

# input for lookup
## Input Would you kindly share the measured EC50 for COc1cc(OC)cc(N2CCN(C(=O)c3ccc(C=O)c([N+](=O)[O-])c3)CC2)c1 ?
## Output 127
